Cited source: patent US11965039B2

// values below are reported inhibition of hemolysis IC50
measurement target: Human C3 (Complement tech cat #A113c) (human, UniProt P01024 23-1663)
Sequence (P01024 23-1663 limits assumed): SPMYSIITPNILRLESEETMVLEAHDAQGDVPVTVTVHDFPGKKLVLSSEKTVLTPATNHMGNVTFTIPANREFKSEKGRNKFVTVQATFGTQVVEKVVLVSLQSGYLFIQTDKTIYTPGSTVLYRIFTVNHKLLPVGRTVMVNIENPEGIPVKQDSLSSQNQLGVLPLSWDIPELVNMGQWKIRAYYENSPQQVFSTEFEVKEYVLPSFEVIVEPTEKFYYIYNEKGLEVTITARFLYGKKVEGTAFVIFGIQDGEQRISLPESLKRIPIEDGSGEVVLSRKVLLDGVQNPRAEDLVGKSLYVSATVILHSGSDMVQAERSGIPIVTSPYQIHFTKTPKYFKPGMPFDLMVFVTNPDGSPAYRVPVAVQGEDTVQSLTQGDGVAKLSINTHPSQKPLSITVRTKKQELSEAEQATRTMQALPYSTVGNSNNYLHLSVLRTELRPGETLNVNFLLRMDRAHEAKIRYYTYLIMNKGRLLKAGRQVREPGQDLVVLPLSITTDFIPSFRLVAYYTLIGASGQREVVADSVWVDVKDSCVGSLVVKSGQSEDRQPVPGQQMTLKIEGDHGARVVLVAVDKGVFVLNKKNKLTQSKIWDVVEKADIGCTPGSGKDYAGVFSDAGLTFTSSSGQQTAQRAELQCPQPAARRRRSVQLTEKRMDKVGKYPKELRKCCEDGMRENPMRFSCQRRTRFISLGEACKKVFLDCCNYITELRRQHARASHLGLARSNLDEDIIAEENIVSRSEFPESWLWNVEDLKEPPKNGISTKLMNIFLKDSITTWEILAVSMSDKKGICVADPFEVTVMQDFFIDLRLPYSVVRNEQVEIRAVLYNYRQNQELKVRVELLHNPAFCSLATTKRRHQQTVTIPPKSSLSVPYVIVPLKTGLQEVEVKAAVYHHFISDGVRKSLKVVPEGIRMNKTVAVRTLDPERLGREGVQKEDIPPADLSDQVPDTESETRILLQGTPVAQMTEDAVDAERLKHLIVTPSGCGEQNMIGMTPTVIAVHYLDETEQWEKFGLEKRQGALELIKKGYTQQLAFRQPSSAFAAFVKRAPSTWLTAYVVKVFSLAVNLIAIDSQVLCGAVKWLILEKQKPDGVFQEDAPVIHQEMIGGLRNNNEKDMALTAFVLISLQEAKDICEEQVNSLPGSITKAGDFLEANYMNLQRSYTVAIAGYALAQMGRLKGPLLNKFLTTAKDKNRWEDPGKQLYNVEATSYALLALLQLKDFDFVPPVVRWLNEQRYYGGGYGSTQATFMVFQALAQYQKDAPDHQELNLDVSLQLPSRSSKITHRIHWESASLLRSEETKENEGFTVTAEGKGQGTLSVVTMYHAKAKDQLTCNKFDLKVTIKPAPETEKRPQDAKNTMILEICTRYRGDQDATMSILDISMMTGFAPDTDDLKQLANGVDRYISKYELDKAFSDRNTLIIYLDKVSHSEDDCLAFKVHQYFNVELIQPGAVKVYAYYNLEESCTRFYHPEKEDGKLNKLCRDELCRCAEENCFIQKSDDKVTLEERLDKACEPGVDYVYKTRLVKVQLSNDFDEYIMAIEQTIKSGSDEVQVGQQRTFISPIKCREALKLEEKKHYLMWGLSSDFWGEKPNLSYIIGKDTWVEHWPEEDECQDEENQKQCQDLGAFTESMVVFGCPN
protocol details: cell-based or functional assay
Positions of bridges follow the written chain, without caps; N, C: chain ends. Non-standard residues stand in square brackets, D forms with d. Trp(1-Me) = Cn1cc(C[C@H](N)C(=O)O)c2ccccc21; AEEA = NCCOCCOCC(=O)O; Sar = CNCC(=O)O
parameter: inhibition of hemolysis IC50

[[record]]
binder = "Ac-YCIWQDWGEHRCT-NH2 (disulfide 2-12; SMILES CC[C@H](C)[C@@H]1NC(=O)[C@@H](NC(=O)[C@H](Cc2ccc(O)cc2)NC(C)=O)CSSC[C@@H](C(=O)N[C@H](C(N)=O)[C@@H](C)O)NC(=O)[C@H](CCCNC(=N)N)NC(=O)[C@H](Cc2c[nH]cn2)NC(=O)[C@H](CCC(=O)O)NC(=O)CNC(=O)[C@H](Cc2c[nH]c3ccccc23)NC(=O)[C@H](CC(=O)O)NC(=O)[C@H](CCC(N)=O)NC(=O)[C@H](Cc2c[nH]c3ccccc23)NC1=O) [Compound 9]"
test_value = "< 100 nM"

[[record]]
binder = "Ac-SEFCI[Trp(1-Me)]QDWGEHRC[Sar]EGE-{AEEA-AEEA-K(γGlu-Gly-γGlu-17-carboxy-heptadecanoyl)-NH2} (disulfide 4-14) [Compound 123]"
test_value = "< 100 nM"

[[record]]
binder = "Ac-EGEICIWQDWGEHRCT-NH2 (disulfide 5-15; SMILES CC[C@H](C)[C@@H]1NC(=O)[C@@H](NC(=O)[C@@H](NC(=O)[C@H](CCC(=O)O)NC(=O)CNC(=O)[C@H](CCC(=O)O)NC(C)=O)[C@@H](C)CC)CSSC[C@@H](C(=O)N[C@H](C(N)=O)[C@@H](C)O)NC(=O)[C@H](CCCNC(=N)N)NC(=O)[C@H](Cc2c[nH]cn2)NC(=O)[C@H](CCC(=O)O)NC(=O)CNC(=O)[C@H](Cc2c[nH]c3ccccc23)NC(=O)[C@H](CC(=O)O)NC(=O)[C@H](CCC(N)=O)NC(=O)[C@H](Cc2c[nH]c3ccccc23)NC1=O) [Compound 30]"
test_value = "< 100 nM"

